Sourced from ChEMBL document CHEMBL4257478

Tested on: Rattus norvegicus
assay_details: AUC (0 to infinity) in Sprague-Dawley rat at 10 mg/kg, po after 0.25 to 24 hrs by LC-MS/MS method
Assay type: ADME, organism-based
Set-up: dose 10 mg/kg, route oral, time infinity
condition_parameters: in vivo
Recorded AUC, one value per entry.

test_smiles	subject_of_test	measurement_unit	AUC
CN(c1ncnc2[nH]ccc12)[C@H]1CN(C(=O)CC#N)CC12CC2.O=C(O)CC(O)(CC(=O)O)C(=O)O	Rattus norvegicus	ng·h/mL	2400
CN(c1ncnc2[nH]ccc12)[C@H]1CN(C(=O)CC#N)CC12CC2.Cl	Rattus norvegicus	ng·h/mL	2400
CN(c1ncnc2[nH]ccc12)[C@H]1CN(C(=O)CC#N)CC12CC2	Rattus norvegicus	ng·h/mL	2100
CN(c1ncnc2[nH]ccc12)[C@H]1CN(C(=O)CC#N)CC12CC2.O=C(O)C(O)C(O)C(=O)O	Rattus norvegicus	ng·h/mL	1900
